Assay: folding stability dG unfold from chymotrypsin proteolysis; higher = more stable
Label scheme for folding stability dG unfold: lo (below 5 kJ/mol), mid (5 kJ/mol to below 8 kJ/mol), hi (8 kJ/mol or more)

SAGGSAGGSMLPADTKVIKITVESTLPDGSTTTHTVTVPSSVPLEAVKEQLPPGATITEVVLASAGGSAGGS [r12_597_JUSTAS]
lo
SAGRIEVYQDPNMLRVIEIPLPNGREIVIYRPPGYYHIEIENPNNNKQIPIMIPMEPGDIKKIIKEFINSAG [r5_820_TrROS]
mid
SAGGSAGGSAGGGSMKEKKLTVGDKEIIVTYNPETGTATVKSPENSVSVFPLEELKKLLSAGGSAGGSAGGS [r10_1140_JUSTAS]
lo
SAGGSAKTIVIPAEDLTPEEIKALAEENKDKIVIYNKKTKKVVTIEVKDGKITKVEEFPVSEEELKSAGGSA [r15_751_TrROS_Hall]
lo

Band for the recorded folding stability dG unfold of SAMPEKRFYTYEIPIPPGFKADEPFVGTVTLEEKTLPIKIGSIPDVPPDATVRLTVDLDTAEFRVELLPSAG [r14_554_TrMRF] ?
mid

Now the same for SAGGVLTRVEIEIVEPGTGVPKRFEALLETGDDGTITLLLPDGTVIELPPTANIKILSEEVLSPSELSAGGS [r16_223_JUSTAS]
lo

Moving on to SKNKVEITIPMPYSQAREIARQLGLPPEKFKDPKDLVDWLKDLFPKDVKIRIQPMKPVTEEERRARQNGKSA [r9_74_TrROS]
mid

// repeat for KTVHIPINGMPLDEMLDMARDALREDPDEGKTITIWVPGNPEWLENLGFDKIEPYKDPERPYMRIKFKVPPS [r1_467_TrROS] and report
mid

Moving on to the next sequence: SAGGMPKLTVTITFEPPDGSTTTTRDFTSVEEAIEALRAVPDIPVEPLEDDVIRARRPDSETTVTIVESAGG [r13_143_JUSTAS]
lo

What would you report for SAGGDKKWTAEFDVRKRDDTVEVTLTFTDPNGNETTETYTLTDDELAKLLAELPPEFKNVTRNEVLESAGGS [r16_298_JUSTAS] ?
hi

Entry SAGGSAGGSAGMVVSVDRATGTFTATDPALGTTTTVPGSEEEVRAYWAERFPDRPVTITASAGGSAGGSAGG [r11_614_JUSTAS] please
lo
